- target-desc: T1, human ErbB2 ECD-myc/His fusion protein (human, UniProt P04626 23-652)
- T1 construct: Made in-house in 293T cells; also called hErbB2(ECD)/cMyc-His; huErbB2 (ECD)/c-myc-His; not shown: c-myc/His tag of the pSecTag2Hygro vector
- experiment: SPR, Biacore 2000 medium resolution; mAb captured on goat anti-human IgG, ErbB2(ECD)-cMyc/His injected; 1:1 fit
Recorded Kd by entry

binder	Kd [nM]
monoclonal antibody 1.100.1 (antibody, V domains shown, Fully human IgG (gamma/kappa) from a XenoMouse XM3B-3 hybridoma; constant regions not tied to it; also called 1.100.2; 1.100.3) VH: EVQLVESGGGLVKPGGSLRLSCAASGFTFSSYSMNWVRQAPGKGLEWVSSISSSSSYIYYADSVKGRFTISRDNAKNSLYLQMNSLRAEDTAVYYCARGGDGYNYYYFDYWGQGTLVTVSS VL: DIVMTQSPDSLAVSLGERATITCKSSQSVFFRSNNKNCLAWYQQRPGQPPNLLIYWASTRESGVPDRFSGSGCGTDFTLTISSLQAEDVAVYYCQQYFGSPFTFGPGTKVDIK	2.9
monoclonal antibody 1.14.1 (antibody, V domains shown, Fully human IgG (gamma/kappa) from a XenoMouse XM3B-3 hybridoma; constant regions not tied to it) VH: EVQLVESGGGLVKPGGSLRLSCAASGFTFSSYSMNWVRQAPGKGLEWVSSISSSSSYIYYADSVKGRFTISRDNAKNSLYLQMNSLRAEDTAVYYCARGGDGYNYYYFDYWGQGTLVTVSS VL: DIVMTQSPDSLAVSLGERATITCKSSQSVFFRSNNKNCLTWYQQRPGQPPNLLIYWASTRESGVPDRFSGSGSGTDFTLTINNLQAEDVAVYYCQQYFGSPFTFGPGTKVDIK	2.5
monoclonal antibody 1.39 (antibody, V domains shown, Fully human IgG (gamma/kappa) from a XenoMouse XM3B-3 hybridoma; constant regions not tied to it; also called 1.39.1; 1.39.2) VH: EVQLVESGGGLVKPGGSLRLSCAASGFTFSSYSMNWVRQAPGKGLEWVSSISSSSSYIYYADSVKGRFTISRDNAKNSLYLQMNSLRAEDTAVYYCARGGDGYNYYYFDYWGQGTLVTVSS VL: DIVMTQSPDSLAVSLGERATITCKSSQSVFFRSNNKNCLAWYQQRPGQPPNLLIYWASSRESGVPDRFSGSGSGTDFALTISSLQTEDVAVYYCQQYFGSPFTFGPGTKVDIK	2
